- method_summary: qHTS assay to identify small molecule agonists of the endoplasmic reticulum stress response signaling pathway (AID 1159516); on activation: on the % scale 0 is the no-effect control and ±100 the full control effect
- conditions_used: ESRE-bla HeLa, ER stress beta-lactamase reporter, 5 h; series mostly up to 61 µM
Records with an inconclusive call do not appear. Calls of active or inactive are those of the source. The call rests on the fitted dose curve; in most records, active means well fitted activation curve with a large enough effect in the signal ratio in the repeat runs (not every such curve was filed as active); inconclusive means weak or mixed curves, or effect the other way; inactive means flat fitted curve, though single readings scatter; the % refers to the signal ratio.
The categories you may choose from are 1 (yes) for active, 0 (no) for inactive

c1ccc(-c2nc[nH]c2-c2ccccc2)cc1; 0 (no)
O=C(/C=C/c1ccc(O)c(O)c1)O[C@@H]1C[C@](O)(C(=O)O)C[C@@H](O)[C@H]1O; 0 (no)
CN(C(=O)CCCOc1ccc2[nH]c(=O)ccc2c1)C1CCCCC1; 0 (no)

Assay result, entry `O=C(NS(=O)(=O)/C=C/c1cccs1)c1ccc(F)cc1Br` — outcome?
0 (no)

Assay result, entry `O=C(O)c1cccc(N(Cc2cccnc2)c2ccc(OC(F)F)c(OC(F)F)c2)c1` — outcome?
0 (no)

Assay result, entry `COC(=O)CSc1cc(N=c2sc(=O)n3n2CCCC3)c(F)cc1Cl` — outcome?
0 (no)

Assay result, entry CCc1nn(C2CCCCC2)c2cc(C3(C#N)CCC(C(=O)O)CC3)ccc12 (configuration not stated) — outcome?
1 (yes)

Assay result, entry `O=C(O)c1cn(C2CC2)c2cc(Cl)c(F)cc2c1=O` — outcome?
0 (no)

Assay result, entry `O=C(Cl)c1c(Cl)cccc1Cl` — outcome?
0 (no)

---

- study_system: Nuclear receptor subfamily 1 group I member 2 (Rattus norvegicus) (UniProt Q9R1A7)
- Sequence (Q9R1A7 whole entry, looked up): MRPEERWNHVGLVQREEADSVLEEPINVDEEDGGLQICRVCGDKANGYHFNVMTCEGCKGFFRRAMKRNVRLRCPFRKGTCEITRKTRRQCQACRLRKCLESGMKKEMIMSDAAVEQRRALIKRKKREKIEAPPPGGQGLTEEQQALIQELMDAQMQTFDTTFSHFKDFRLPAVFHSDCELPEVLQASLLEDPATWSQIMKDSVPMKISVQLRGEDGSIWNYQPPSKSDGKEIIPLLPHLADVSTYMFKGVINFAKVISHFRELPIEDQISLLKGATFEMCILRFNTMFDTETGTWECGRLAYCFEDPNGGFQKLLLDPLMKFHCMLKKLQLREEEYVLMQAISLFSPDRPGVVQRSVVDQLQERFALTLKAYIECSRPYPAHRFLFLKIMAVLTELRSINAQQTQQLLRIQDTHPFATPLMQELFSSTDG
- method_summary: Rat pregnane X receptor (rPXR) activation by small molecules, qHTS assay (AID 1346983); further: on the % scale 0 is the no-effect control and ±100 the full control effect; nearly all actives have a fitted effect of over 20% in size
- conditions_used: rPXR luciferase reporter cells, One-Glo luminescence, 24 h; stronger effect = higher value
Records with an inconclusive call do not appear.
Reported max activation values for a set of compounds
Write the value in % as a bare number.

// below: answered compounds
Cc1ccc(O)c([C@H](CCN(C(C)C)C(C)C)c2ccccc2)c1; 2.91
O=C(O)Cn1c(C(=O)Nc2nc(-c3ccccc3Cl)cs2)cc2ccccc21; -0.843
CCOc1cc(OCC)c(C(=O)CCC(=O)O)cc1OCC; -2.62

Let us move to another entry and its max activation.
Given CCN(CC)CCNC(C(=O)OCCC(C)C)c1ccccc1 (configuration not stated) , respond with its max activation.
-0.588

---

- study_system: Cytochrome P450 3A4 (Homo sapiens)
- method_summary: Cytochrome P450 Family 3 Subfamily A Member 4 (CYP3A4) small molecule antagonists: luciferase reporter qHTS assay (AID 1671201); further: nearly all actives have a fitted effect of over 50% in size
- conditions_used: P450-Glo CYP3A4 enzyme, luciferin luminescence, 1 h; series mostly up to 115 µM
Inconclusive results are not listed. The source made the active and inactive calls. Calls follow the shape of the dose curve; as a rule, active = well fitted inhibition curve with a large enough effect in the repeat runs; inconclusive = weak or mixed curves; inactive = no such curve, though single readings can be large or run the other way.
The categories you may choose from are active, inactive

C=C(C)C(=O)OCCN(C)C; active

Assay result, entry `CC(C)CCCCCCOC(=O)c1ccc(C(=O)OCCCCCCC(C)C)c(C(=O)OCCCCCCC(C)C)c1` — outcome?
inactive

Assay result, entry `O=C(O)COC(=O)Cc1ccccc1Nc1c(Cl)cccc1Cl` — outcome?
inactive

Assay result, entry `C=C(C)C(=O)OCCOc1ccccc1` — outcome?
inactive

---

- method_summary: qHTS assay to test for compound auto fluorescence at 535 nm (green) in HEK293 cell free culture (AID 720682); further: on the % scale 0 is the no-effect control and ±100 the full control effect
- conditions_used: cell-free medium, green autofluorescence 485/535 nm, stronger effect = higher value; series mostly up to 91.3 µM
Active and inactive are the calls of the source. Calls come from the whole dose curve; as a rule, active = well fitted curve in the direction sought with a large enough effect in the repeat runs; inconclusive = weak or mixed curves; inactive = flat fitted curve, though single readings scatter.
measure_name: activity change

COc1ccc([C@@H]2Sc3ccccc3N(CCN(C)C)C(=O)[C@@H]2OC(C)=O)cc1; inactive
Cc1ccc(C)o1; inactive
CCCCc1cc2ccccc2c(OCCN(C)C)n1; -0.13% [at 18.6 µM] (inactive)

---

- method_summary: qHTS assay to identify small molecule antagonists of the estrogen related receptor (ERR) signaling pathway from Tox21 library - cell viability counter screen (AID 1224834); further: nearly all actives have a fitted effect of over 30% in size
- conditions_used: ERR reporter cells viability, CellTiter-Fluor, 17.5 h; series mostly up to 92.4 µM
Records with an inconclusive call do not appear. The source made the active and inactive calls. Calls come from the whole dose curve; as a rule, active = well fitted cell-killing curve with a large enough effect in the repeat runs; inconclusive = weak or mixed curves; inactive = flat fitted curve, though single readings scatter.
The categories you may choose from are active, inactive

Before answering, review these 3 worked examples.
O=C(O)[C@@H]1[C@H]2C[C@H]3c4[nH]c5ccccc5c4CCN3C[C@@H]2CC[C@@H]1O; inactive
O=C(O)/C=C/c1cnc[nH]1; inactive
Cc1cc(C)c(S(=O)(=O)O)cc1N=Nc1cc(S(=O)(=O)O)c2ccccc2c1O; active

Assay result, entry `Cc1nc2ccccc2n1Cc1ccc(Cl)cc1` — outcome?
inactive

Assay result, entry `CCCCCCCCCCCCCCCC(=O)OC/C=C(C)/C=C/C=C(C)/C=C/C1=C(C)CCCC1(C)C` — outcome?
inactive

Assay result, entry `Nc1ccc(C(=O)N2CC3CC(CN(Cc4ccccc4)C3)C2)cc1` — outcome?
inactive

Assay result, entry `Cc1cc(O)ccc1N` — outcome?
active

Assay result, entry `O=C(Cl)c1c(Cl)cccc1Cl` — outcome?
inactive

Assay result, entry `CCCCCCOC(=O)CCC` — outcome?
inactive

---

- method_summary: qHTS assay to identify small molecule antagonists of the farnesoid-X-receptor (FXR) signaling pathway - cell viability counter screen (AID 743221); further: nearly all actives have a fitted effect of over 50% in size
- conditions_used: FXR-bla HEK293T viability, CellTiter-Glo luminescence, 16 h; series mostly up to 62.6 µM
Records with an inconclusive call do not appear. Active and inactive are the calls of the source. Calls come from the whole dose curve; as a rule, active = well fitted cell-killing curve with a large enough effect in the repeat runs (not every such curve was filed as active); inconclusive = weak or mixed curves, or effect the other way; inactive = no such curve, though single readings can be large or run the other way.
The categories you may choose from are yes (active), no (inactive)

CC1(C)CCC(C)(C)c2cc(NC(=O)c3ccc(C(=O)O)cc3)ccc21; no
CN1CCC[C@@H]1c1cccnc1; no
CC[C@@H]1C[C@H](N(Cc2cc(C(F)(F)F)cc(C(F)(F)F)c2)C(C)=O)c2cc(C(F)(F)F)ccc2N1C(=O)OC(C)C; no

Assay result, entry OCC1CC2CC1C1CCC(CO)C21 (configuration not stated) — outcome?
yes

Assay result, entry `Cn1c(NCCN(CCO)CCCc2ccc([N+](=O)[O-])cc2)cc(=O)n(C)c1=O` — outcome?
no

Assay result, entry `O=C(O)Cn1c(C(=O)Nc2nc(-c3ccccc3Cl)cs2)cc2ccccc21` — outcome?
no

Assay result, entry `NC(N)=NN=C(/C=C/c1ccc([N+](=O)[O-])o1)/C=C/c1ccc([N+](=O)[O-])o1` — outcome?
yes

Assay result, entry `CC(=O)Nc1ccc(/C=N/NC(N)=S)cc1` — outcome?
no

Assay result, entry `ClC(Cl)(Cl)c1ccc(C(Cl)(Cl)Cl)cc1` — outcome?
no

Assay result, entry `c1ccc(OCc2ccc(CCCN3CCOCC3)cc2)cc1` — outcome?
no

Assay result, entry `CCCCC(CC)(CO)CO` — outcome?
no

---

- method_summary: qHTS assay to test for compound auto fluorescence at 590 nm (red) in HepG2 cell free culture (AID 720684); further: on the % scale 0 is the no-effect control and ±100 the full control effect
- conditions_used: cell-free medium autofluorescence, red 540/590 nm; series mostly up to 91.3 µM
The source made the active and inactive calls. Calls follow the shape of the dose curve; as a rule, active = well fitted curve in the direction sought with a large enough effect in the repeat runs; inconclusive = weak or mixed curves; inactive = flat fitted curve, though single readings scatter.
measure_name: fluorescence, % of Rose Bengal

// below: answered compounds
CN(C)CCCOc1nn(Cc2ccccc2)c2ccccc12; -0.0465% [at 18.6 µM] (inactive)
O=C=NC1CCC(CC2CCC(N=C=O)CC2)CC1 (stereo not drawn); inactive
CN(C)CCCNCCCN; inactive
Cn1c(=O)c2c(ncn2CC(O)CO)n(C)c1=O (stereo not drawn); -0.139% [at 18.6 µM] (inactive)
CCCCCCOC(=O)CCC; inactive
CN(C)CC/C=C1\c2ccccc2COc2ccccc21; inactive
Cc1ccc(C(N)=O)cc1N; inactive

Let us move to another entry and its fluorescence, % of Rose Bengal.
Given `CC(=O)[C@@]1(O)CC[C@H]2[C@@H]3C[C@H](C)C4=CC(=O)CC[C@]4(C)[C@H]3CC[C@@]21C` , respond with its fluorescence, % of Rose Bengal.
inactive

---

- method_summary: qHTS assay to identify small molecule antagonists of the peroxisome proliferator-activated receptor gamma (PPARg) signaling pathway - cell viability counter screen (AID 743194); further: on the % scale 0 is the no-effect control and ±100 the full control effect; nearly all actives have a fitted effect of over 55% in size
- conditions_used: PPARg-bla HEK293H viability, CellTiter-Glo luminescence, 17 h, co-treated with 50 nM rosiglitazone; series mostly up to 62.6 µM
Records with an inconclusive call do not appear. The source made the active and inactive calls. The call rests on the fitted dose curve; in most records, active means well fitted cell-killing curve with a large enough effect in the repeat runs; inconclusive means weak or mixed curves, or effect the other way; inactive means no such curve, though single readings can be large or run the other way.
measure_name: activity change, negative = cytotoxicity

CCCCCCCCCO; inactive
CN1CCN(C2=Nc3cc(Cl)ccc3Nc3ccccc32)CC1; inactive
Cc1ccc(C(=O)C(C)CN2CCCCC2)cc1 (stereo not drawn); inactive

---

- study_system: Androgen receptor (Homo sapiens)
- method_summary: qHTS assay to identify small molecule antagonists of the androgen receptor (AR) signaling pathway using the MDA cell line in the presence of 0.5 nM R1881 (AID 1259243); further: nearly all actives have a fitted effect of over 50% in size
- conditions_used: MDA-kb2 MMTV-luciferase, R1881 0.5 nM, 16 h; series mostly up to 92.4 µM
Inconclusive results are not listed. The source made the active and inactive calls. The call rests on the fitted dose curve; in most records, active means well fitted inhibition curve with a large enough effect in the repeat runs; inconclusive means weak or mixed curves; inactive means no such curve, though single readings can be large or run the other way.
The categories you may choose from are active, inactive

Assay result, entry `C=C(C)C(=O)OC(C)C` — outcome?
inactive

Assay result, entry `O=C(O)COC(=O)Cc1ccccc1Nc1c(Cl)cccc1Cl` — outcome?
inactive

Assay result, entry `Cc1cc(NC(=O)C(=O)O)cc(C)c1Oc1ccc(O)c2c1CCC2` — outcome?
inactive

Assay result, entry `CC[C@]12CCCN3CCc4c(n(c5ccccc45)C(=O)C1)[C@@H]32` — outcome?
inactive

Assay result, entry CC(C(=O)O)c1ccc(C(=O)c2ccccc2)s1 (stereo unspecified) — outcome?
inactive

Assay result, entry CC(C)CCCC(C)CCO (stereo unspecified) — outcome?
inactive

Assay result, entry `CC(C)(C)c1cc(O)c(C(C)(C)C)cc1O` — outcome?
active

Assay result, entry `O=C(O)Cc1sc(-c2ccccc2)nc1-c1ccc(Cl)cc1` — outcome?
inactive

Assay result, entry `NC(=S)N/N=C/c1cccnc1` — outcome?
inactive

Assay result, entry `NCCCN(CCO)CCO` — outcome?
inactive

Assay result, entry `CC(C)c1ccc2c(C(C)C)cc(C(C)C)c(S(=O)(=O)O)c2c1` — outcome?
inactive

Assay result, entry `COCCOCCOCCOCCOC` — outcome?
inactive

Assay result, entry CCCCOC(O)CC (stereo unspecified) — outcome?
inactive

Assay result, entry `Cc1cc(C)c(S(=O)(=O)O)cc1N=Nc1cc(S(=O)(=O)O)c2ccccc2c1O` — outcome?
inactive

Assay result, entry `CCOc1nc2cccc(C(=O)O)c2n1Cc1ccc(-c2ccccc2-c2nn[nH]n2)cc1` — outcome?
inactive

Assay result, entry `NC(N)=N/N=C/c1c(Cl)cccc1Cl` — outcome?
active
